Source of measurements: paper PMC4810412

# system.under.test: WaaG (α-1,3-glucosyltransferase I) (Escherichia coli, UniProt P25740)
# Sequence (P25740 whole entry, the tested form may be a part): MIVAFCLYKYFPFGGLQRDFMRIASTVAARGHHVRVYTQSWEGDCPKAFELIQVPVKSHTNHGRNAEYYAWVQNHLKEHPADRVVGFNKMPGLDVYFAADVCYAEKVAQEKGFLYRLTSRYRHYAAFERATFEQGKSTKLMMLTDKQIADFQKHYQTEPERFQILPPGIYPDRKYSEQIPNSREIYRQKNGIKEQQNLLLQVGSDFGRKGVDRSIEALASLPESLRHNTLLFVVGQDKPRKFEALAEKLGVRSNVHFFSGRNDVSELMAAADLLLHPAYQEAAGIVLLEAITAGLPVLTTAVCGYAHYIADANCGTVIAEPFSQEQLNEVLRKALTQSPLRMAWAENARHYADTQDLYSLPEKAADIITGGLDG
# protocol.description: […]-glucose transfer from UDP-Glc to truncated LPS, SDS-PAGE autoradiography, dose-response
readout: IC50 (µM)
The answer is to be given in µM; state only the numeric part.

## Input What does the data say about its IC50? Entry: Nc1nc(-c2ccc(O)cc2)cs1 [L1, 4-(2-amino-1,3-thiazol-4-yl)phenol]
## Output 1000
